// data source = patent US9573961B2

Biological target: hROMK (hKir1.1) (Homo sapiens (Human), UniProt P48048)
Sequence (P48048 whole entry): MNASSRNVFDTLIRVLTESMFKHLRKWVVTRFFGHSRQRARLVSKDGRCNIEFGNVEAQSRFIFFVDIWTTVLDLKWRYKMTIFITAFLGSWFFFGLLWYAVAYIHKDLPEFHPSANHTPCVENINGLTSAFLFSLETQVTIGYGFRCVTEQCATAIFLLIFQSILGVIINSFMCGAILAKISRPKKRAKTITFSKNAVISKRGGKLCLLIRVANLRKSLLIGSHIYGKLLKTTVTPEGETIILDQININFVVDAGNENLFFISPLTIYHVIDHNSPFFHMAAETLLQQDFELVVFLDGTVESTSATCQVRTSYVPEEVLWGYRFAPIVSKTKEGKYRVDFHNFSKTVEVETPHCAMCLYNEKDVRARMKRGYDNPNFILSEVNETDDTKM
Test: Thallium Flux Assay (ROMK channel functional thallium flux, FLIPR-Tetra)
Format: cell-based
Conditions: HEK293 cells stably expressing hROMK (hKir1.1); read-out: Thallium Flux IC50
Description: Cell Culture Conditions—HEK293 cells stably expressing hROMK (hKir1.1) were grown at 37° C. in a 10% CO2 humidified incubator in complete growth media: Dulbecco's Modified Eagle Medium supplemented with non-essential amino acids, Penicillin/Streptomycin/Glutamine, G418 and FBS. […] Data Calculation—The fluorescence intensity of wells containing 3 μM of a standard control ROMK inhibitor of the present invention is used to define the ROMK-sensitive component of thallium flux. […]
# IC50 per record follows
// note: answer is a bare numeric in nM

| compound | IC50 (nM) |
| --- | --- |
| COc1cc(CC(=O)N2CCN3C[C@H](c4ccc5c(c4)CCOC5=O)OC[C@H]3C2)c(F)cc1C#N [Example 31] | 570 |

Query block: Return reported IC50; argument: COc1cc(CC(=O)N2CCN3C[C@@H](c4ccc5c(c4)CCOC5=O)OC[C@@H]3C2)ccc1C#N [Example 29]
Result block: 300

Query block: Return reported IC50; argument: COc1cc([C@@H]2CN3CCN(C(=O)Cc4ccc(-n5cnnn5)cc4)C[C@@H]3CO2)ccc1C#N [Example 19]
Result block: 170
